Assignment: determine reported % Inhibition of Apyrase for the given compounds.
- Tested on: apyrase
- protocol-summary: Screen for apyrase inhibitors (Method 1, in vitro phosphate-release absorbance assay)
- Format: biochemical
- test-settings: inhibitor conc at 1 mM stock, 1 hr room temperature, absorbance 630 nm; rounded average of two assay results
Answers are plain numbers, in %.

- compound: "Cc1ccc(Br)c(NS(=O)(=O)c2cccc(NC(=O)c3ccc(C)nc3)c2)c1 [I-738]"
  assayed-system: "apyrase"
  metric-name: "% Inhibition of Apyrase"
  unit-abbrev: "%"
  reported-measurement: 52
- compound: "C#Cc1cccc(NC(=O)c2cccc(S(=O)(=O)Nc3ccc(Cl)cc3)c2)c1 [I-237]"
  assayed-system: "apyrase"
  metric-name: "% Inhibition of Apyrase"
  unit-abbrev: "%"
  reported-measurement: 76
- compound: "Cc1cccc(NC(=O)c2ccc(NS(=O)(=O)c3ccc(F)cc3)cc2)c1C [I-937]"
  assayed-system: "apyrase"
  metric-name: "% Inhibition of Apyrase"
  unit-abbrev: "%"
  reported-measurement: 52

Please state % Inhibition of Apyrase for every compound in the list that follows.
1. CN(c1ccccc1)S(=O)(=O)c1cccc(NC(=O)c2ccc3ccccc3n2)c1 [I-754]
2. Cc1nc2ccc(NC(=O)c3cccc(S(=O)(=O)Nc4ccc5c(c4)OCO5)c3)cc2s1 [I-261]

### Response
1. 36
2. 60
